systemName: human LPA1 (Homo sapiens, UniProt Q92633)
Construct: expressed in transfected cells; host or cells: CHO-K1
Sequence (Q92633 whole entry): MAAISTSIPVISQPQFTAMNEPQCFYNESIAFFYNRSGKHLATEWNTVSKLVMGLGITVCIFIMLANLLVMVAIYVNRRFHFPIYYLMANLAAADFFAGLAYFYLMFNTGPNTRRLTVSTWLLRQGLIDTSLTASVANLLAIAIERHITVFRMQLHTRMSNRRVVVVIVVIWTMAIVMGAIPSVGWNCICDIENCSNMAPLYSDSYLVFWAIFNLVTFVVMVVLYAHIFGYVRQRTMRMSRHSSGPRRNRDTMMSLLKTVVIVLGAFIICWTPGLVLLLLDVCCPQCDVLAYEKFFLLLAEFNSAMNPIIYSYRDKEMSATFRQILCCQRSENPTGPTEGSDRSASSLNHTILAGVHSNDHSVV
measurementDescription: In vitro LPA1 calcium flux antagonist assay - Bioduro protocol
Format: cell-based
conditionNotes: Table B3; CHO-K1 cells overexpressing human LPA1 and G15a, LPA challenge at EC80; read-out: Activity (IC50 class)
endpointName: IC50

compound="COc1cc(-c2ccc(NC3(C(=O)O)C[C@@H]3C)cc2COC2Cc3ccccc3C2)cc(OC)c1C (stereo partly shown) [Compound 119]" endpointname=IC50 valuereported="< 100 nM"

Please turn your attention to the following entry.
Return reported IC50; argument: COc1cc(-c2ccc(NC3(C(=O)O)CCOCC3)cc2COCC2CC2)c(F)c(OC)c1C [Compound 364]
< 100 nM

---

systemName: human LPA1 (Homo sapiens, UniProt Q92633)
Construct: expressed in transfected cells; host or cells: CHO-K1
measurementDescription: In vitro LPA1 calcium flux antagonist assay - Bioduro protocol
Assay type: cell-based
conditionNotes: Table B3; CHO-K1 cells overexpressing human LPA1 and G15a, LPA challenge at EC80; read-out: Activity (IC50 class)
The entries below come with measured IC50 values attached.

Some solved cases for reference:
compound="CCOc1cccc(-c2ccc(OC3(C(=O)O)CCOCC3)cc2COC2CC2)c1C(F)F [Compound 371]" systemname="human LPA1 (Homo sapiens, UniProt Q92633)" endpointname=IC50 valuereported="< 100 nM"
compound="Cc1c(OC2CC2)cccc1-c1ccc(NC2(C(=O)O)CCOCC2)cc1COC1CCCC1 [Compound 285]" systemname="human LPA1 (Homo sapiens, UniProt Q92633)" endpointname=IC50 valuereported="< 100 nM"
compound="COc1cc(-c2ccc(NC3(C(=O)O)CCOCC3)cc2COC2Cc3ccccc3C2)cc(OC)c1C#N [Compound 127]" systemname="human LPA1 (Homo sapiens, UniProt Q92633)" endpointname=IC50 valuereported="< 100 nM"
compound="COc1cc(OC)cc(-c2ccc(NC3(C(=O)O)CCOCC3)cc2COC2CCCC2)c1 [Compound 146]" systemname="human LPA1 (Homo sapiens, UniProt Q92633)" endpointname=IC50 valuereported="< 100 nM"
compound="O=C(O)C1(Nc2ccc(-c3cccc(OC4CC4)c3C(F)F)c(COC3CCCC3)c2)CC1 [Compound 301]" systemname="human LPA1 (Homo sapiens, UniProt Q92633)" endpointname=IC50 valuereported="< 100 nM"

Return reported IC50; argument: COc1cc(OC)cc(-c2ccc(NC3(C(=O)O)CCOCC3)cc2COC2COc3ccccc32)c1 (single isomer, unassigned) [Compound 159]
> 1000 nM

Return reported IC50; argument: CCOc1c(C)ccc(-c2ccc(NC3(C(=O)O)CCOCC3)cc2COCC(C)C)c1C [Compound 394]
< 100 nM

Return reported IC50; argument: COc1cc(-c2c(C)cc(NC3(C(=O)O)CCOCC3)cc2CCC2CCOC2)cc(OC)c1C (stereo not shown) [Compound 309]
< 100 nM

Return reported IC50; argument: CCOc1cccc(-c2ccc(NC3(C(=O)O)CC3)cc2COC2CCCC2)c1C(F)F [Compound 317]
< 100 nM

Return reported IC50; argument: CCOc1c(C)ccc(-c2ccc(NC3(C(=O)O)CCOCC3)cc2COC2CCCC2)c1C [Compound 280]
< 100 nM

Return reported IC50; argument: CCOc1cccc(-c2ccc(NC3(C(=O)O)CCOCC3)cc2CCC2CCOC2)c1F (stereo not shown) [Compound 267]
< 100 nM

Return reported IC50; argument: CCCCOCc1cc(NC2(C(=O)O)CCOCC2)ccc1-c1cncc(OCC)c1C(F)F [Compound 404]
< 100 nM

Return reported IC50; argument: COc1cc(-c2ccc(NC3(C(=O)O)CCOCC3)cc2COC2CCCC2)c(F)c(C2CC2)c1 [Compound 240]
< 100 nM

Return reported IC50; argument: COc1cc(-c2ccc(C3(C(=O)O)CCOCC3)cc2COC2CCCC2)cc(OC)c1C [Compound 234]
> 1000 nM

Return reported IC50; argument: COc1cc(-c2ccc(NC3(C(=O)O)CCOCC3)cc2CNC2CCCC2)cc(OC)c1C [Compound 153]
> 1000 nM

Return reported IC50; argument: COC(=O)N1CCC(Nc2ccc(-c3cc(OC)c(C)c(OC)c3)c(COC3CCCC3)c2)(C(=O)O)CC1 [Compound 140]
< 100 nM

---

systemName: human LPA1 (Homo sapiens, UniProt Q92633)
Construct: expressed in transfected cells; host or cells: CHO-K1
measurementDescription: In vitro LPA1 functional antagonist assay (calcium mobilization, FLIPR)
Format: cell-based
conditionNotes: Table B2; CHO-K1 cells overexpressing human LPA1, Oleoyl LPA challenge at EC80; read-out: IC50
pIC50: −log10 of the molar value.
endpointName: pIC50

P. CCOc1cc(OC)cc(-c2ccc(NC3(C(=O)O)CCOCC3)cc2CCC2CC2)c1F [Compound 298]
Q. COc1cc(-c2ccc(NCCC(=O)O)cc2COCc2ccccc2)ccc1C(F)F [Compound 102]
Between the entries labelled P and Q , which has a larger pIC50 value on record? Returns: label corresponding to the selected item.
P

A. Cc1c(OC2CC2)cccc1-c1ccc(NC2(C(=O)O)CCOCC2)cc1COC1CCCC1 [Compound 285]
B. CCCOc1cccc(-c2ccc(NC3(C(=O)O)CCOCC3)cc2COC2CCCC2)c1F [Compound 284]
Select the item whose pIC50 value is smaller, choosing between A and B . Returns: label corresponding to the selected item.
A

---

systemName: human LPA1 (Homo sapiens, UniProt Q92633)
Construct: expressed in transfected cells; host or cells: CHO-K1
measurementDescription: In vitro LPA1 calcium flux antagonist assay - Bioduro protocol
Format: cell-based
conditionNotes: CHO-K1 cells overexpressing human LPA1 and G15a; LPA challenge at EC80; calcium mobilization on FLIPR Tetra; read-out: IC50
endpointName: IC50 (nM)

I. CCCOc1cccc(-c2ccc(NC3(C(=O)O)CCOCC3)cc2COC2CC2)c1F
II. COc1cc(-c2ccc(NC3(C(=O)O)CCC3)cc2COC2CC2)c(F)c(OC)c1C
III. Cc1c(OC2CC2)cccc1-c1ccc(NC2(C(=O)O)CCOCC2)cc1COC1CCCC1
Order the 3 compounds from highest to lowest IC50. Use the labels to give the requested order.
II, I, III

I. COc1cc(-c2cc(F)c(NC3(C(=O)O)CCOCC3)cc2COC2CCCC2)c(F)c(OC)c1C
II. CCOc1cccc(-c2ccc(NC3(C(=O)O)CC3)cc2COC2CC2)c1C(F)F
Select the item whose IC50 value is smaller, choosing between I and II . Returns: label corresponding to the selected item.
II
(II: 49.8 nM, I: 82.9 nM)

a. COc1cc(-c2c(COC3CCCC3)cc(NC3(C(=O)O)CCOCC3)cc2OC)cc(OC)c1C
b. CCCCOCc1cc(NC2(C(=O)O)CCOCC2)ccc1-c1cc(OC)cc(OC)c1Cl
c. O=C(O)C1(Nc2ccc(-c3cccc(OC4CC4)c3C(F)F)c(COC3CCCC3)c2)CC1
rank_up(items): orders items by reported IC50 in ascending numerical order. Use the labels to give the requested order.
b, c, a

---

systemName: human LPA1 (Homo sapiens)
Construct: expressed in transfected cells; host or cells: CHO-K1
measurementDescription: In vitro LPA1 calcium flux antagonist assay - Bioduro protocol
Type: cell-based
conditionNotes: Table B3; CHO-K1 cells overexpressing human LPA1 and G15a, LPA challenge at EC80; read-out: Activity (IC50 class)
The entries below come with measured IC50 values attached.

Return reported IC50; argument: `CCCc1cccc(-c2ccc(NC3(C(=O)O)CCOCC3)cc2COC2CCCC2)c1F`
< 100 nM

Return reported IC50; argument: `COc1cc(-c2ccc(N(C)C3(C(=O)O)CCOCC3)cc2COC2CCCC2)c(F)c(OC)c1C`
100 to 1000 nM

Return reported IC50; argument: `COc1cc(OC)c(C(F)F)c(-c2ccc(NC3(C(=O)O)CCOCC3)cc2COC2CC2)c1`
100 to 1000 nM

Return reported IC50; argument: COc1cc(-c2ccc(NC3(C(=O)O)CCC(C)(OC)CC3)cc2COC2CCCC2)c(F)c(OC)c1C (single isomer, unassigned) [Compound 238]
100 to 1000 nM

---

systemName: human LPA1 (Homo sapiens, UniProt Q92633)
Construct: expressed in transfected cells; host or cells: CHO-K1
measurementDescription: In vitro LPA1 calcium flux antagonist assay - Bioduro protocol
Assay type: cell-based
conditionNotes: CHO-K1 cells overexpressing human LPA1 and G15a; LPA challenge at EC80; calcium mobilization on FLIPR Tetra; read-out: IC50
endpointName: IC50 (µM)

a. CCCOc1cccc(-c2ccc(NC3(C(=O)O)CCOCC3)cc2COC2CCCC2)c1F
b. COc1cc(-c2ccc(NC3(C(=O)O)CC(OC)C3)cc2COC2Cc3ccccc3C2)cc(OC)c1C (single isomer, unassigned) [Compound 125]
Between the entries labelled a and b , which has a larger IC50 value on record? Returns: label corresponding to the selected item.
b

P. CCOc1cc(OC)cc(-c2ccc(NC3(C(=O)O)CC(F)(F)C3)cc2COC2CC2)c1F
Q. COc1cc(-c2ccc(NC3(C(=O)O)CCOCC3)cc2COC2CCCC2)c(F)c(OC)c1C
R. CCOC1CC(Nc2ccc(-c3cc(OC)c(C)c(OC)c3C)c(COC3CCCC3)c2)(C(=O)O)C1 (centres unmarked) [Compound 214]
S. COc1cc(-c2ccc(NC3(C(=O)O)CCOCC3)cc2COCCC(C)C)c(F)c(OC)c1C
Falling order of IC50, please. Use the labels to give the requested order.
R, P, Q, S
(R: 0.0589 µM, P: 0.0332 µM, Q: 0.0109 µM, S: 0.00463 µM)
